Here, each record is paired with measured pEC50 data.
tested on: HMPV clinical isolate TN/1501/A1; assay: HMPV antiviral assay Method-B (clinical isolate TN/1501/A1 in LLC-MK2 cells, ATP-Lite readout); format: cell-based, Human metapneumovirus (HMPV); settings: human metapneumovirus, LLC-MK2, 144 h, hMPV WT1501 (clinical isolate TN/1501/A1), 6 days
pEC50: −log10 of the molar value.

Solved entries:
{"compound": "COc1cc(C(=O)NC[C@](O)(c2cc3c(c(-c4ccc(F)cc4)n2)OC[C@]3(C(N)=O)C(F)F)C2CC2)cc2cn(C3CC3)nc12 [Example 1022]", "readout": "pEC50", "reported-value": "< 6.30"}
{"compound": "Cc1cnc2c(Cl)cc(C(=O)NC[C@](O)(c3cc4c(c(-c5cc(F)c(F)c(Cl)c5)n3)OC[C@]4(C)C(N)=O)C3CC3)cc2c1 [Example 792]", "readout": "pEC50", "reported-value": "> 6.30"}
{"compound": "COc1cc(C(=O)NC[C@](O)(c2cc3c(c(-c4cccc(F)c4Cl)n2)OC[C@]3(C)C(N)=O)C2CC2)cc2cc(Br)c(C)nc12 [Example 1126]", "readout": "pEC50", "reported-value": "> 6.30"}
{"compound": "COc1cc(C(=O)NC[C@](O)(c2nc(-c3ccc4c(c3)OC(F)(F)O4)c3c(c2F)[C@](C)(C(N)=O)CO3)C2CC2)cc2cc(Br)cnc12 [Example 870]", "readout": "pEC50", "reported-value": "< 6.30"}

Next:
Task: For the compound C[C@]1(C(N)=O)COc2c1cc([C@@](O)(CNC(=O)c1cc(OC3CC3)c3nn(C(F)F)cc3c1)C(F)(F)F)nc2-c1ccc2c(c1)OC(F)(F)O2 [Example 569] , give its reported pEC50.
Result: > 6.30
